GI50 reference
System: HCT-15

Look over these answered cases.
1. C/C(=N\Nc1nnc(S)n1N)c1c(O)cc(C)oc1=O; > 100 µM
2. CCOC(=O)C(Cc1cn(C(C)=O)c2ccccc12)P(=O)(OCC)OCC (stereo not drawn); > 100 µM

Shifting focus to the molecule that follows.
Which GI50 is reported for this molecule? `C[n+]1ccc2[nH]c3ccccc3c2c1`
> 100 µM

* * *

System: 786-0
TEST_DETAILS: NCI tumour cell line growth inhibition, 48 h
The source made the active and inactive calls. Cut-off read from the data, not from the text of the source: active = GI50 up to about 1.1 µM and inactive = higher. Where a SMILES comes first, the peptide text is derived from it. The star is where a group is joined. Boc = CC(C)(C)OC(=O)*
REPORTED_PROPERTY: GI50

Look over these answered cases.
1. NNC(=O)CSc1nc2ccccc2c(=O)n1N; 19 µM (inactive)
2. CSCCC(NC(=O)C(CC(C)C)NC(=O)C1CCCN1C(=O)C(Cc1ccccc1)NC(=O)C(Cc1ccccc1)NC(=O)C(CCC(=O)O)NC(=O)OC(C)(C)C)C(N)=O (centres undefined) (Boc-EFFPLM-NH2; configuration not given here); > 100 µM (inactive)
3. O=c1c2ccc3cccc4c(=O)cc(c5ccccc15)-c2c34; > 100 µM (inactive)

Which GI50 is reported for this compound? COC(C)(C)[C@@H](O)[C@H]1C[C@H](C)[C@@]2(CC[C@]3(C)[C@@H]2CC[C@@H]2[C@@]4(C)CC[C@@H](OC(C)=O)C(C)(C)[C@@H]4C[C@@H](OC4OC(COC(C)=O)C(O)C(O)C4O)[C@]23C)O1 (some centres undefined)
5.86 µM (inactive)

* * *

Test system: HCT-116
TEST_DETAILS: NCI tumour cell line growth inhibition, 48 h
Active and inactive are the calls of the source. No stated cut-off is given here; in the data, active = GI50 up to about 1.1 µM and inactive = higher.
Can you answer with just one of these options? yes (1) (active), no (0) (inactive)

Some solved entries appear below for comparison.
1) CN(C)/C=N/c1nc2c(ncn2C2OC(CO)C(O)C2O)c(=O)[nH]1 (stereo not given); no (0)
2) COC(CN(C)C(=S)Nc1cccc2ccccc12)OC; no (0)
3) Oc1cccc(-c2cn3cc(Cl)ccc3n2)c1; no (0)
4) COc1ccccc1/C=C1\CCC(CNc2ccc(Cl)cc2)C1=O (stereo not given); no (0)
5) CC(C)NCCCNc1c2ccccc2nc2cccc([N+](=O)[O-])c12; yes (1)

Per the assay record, what outcome was assigned to `N#Cc1c(/C=C/c2ccccc2)c2c([nH]c1=S)CCCCC2` ?
no (0)

`Cc1cc2c(O)c(c1)CN(CC(=O)O)Cc1cc(C)cc(c1O)CN(CC(=O)O)Cc1cc(C)cc(c1O)CN(CC(=O)O)C2` , same question.
no (0)

* * *

Tested on: CCRF-CEM
TEST_DETAILS: NCI tumour cell line growth inhibition, 48 h
Calls of active or inactive are those of the source. Rule as the data show it: active = GI50 up to about 1.1 µM and inactive = higher. Residues, ends and D or L forms follow the SMILES beside them.
Can you answer with just one of these options? T (active), F (inactive)

Some solved entries appear below for comparison.
1) CCN(CC)CC(O)CNc1ccc(NCC(O)CCl)c2c1C(=O)c1ccccc1C2=O (stereo not drawn); T
2) CCc1n[nH]c(=O)n1/N=C(\C)c1ccc([N+](=O)[O-])cc1; F
3) O=C(NC(Cc1ccccc1)P(=O)(O)c1ccccc1)OCc1ccccc1 (stereo not drawn); F
4) COC(=O)c1ccc(C)cc1C1CN=NC12Cc1cc(C)c(C)cc1C2=O (stereo not drawn); F
5) O=C1c2ccccc2C(=O)N1CCn1ccc(NC(c2ccccc2)(c2ccccc2)c2ccccc2)nc1=O; F
6) CCC1=C(C)/C(=C/c2[nH]c(CBr)c(CC)c2C)N=C1CBr; F
7) N#Cc1nn(C(N)=O)c(N)c1C#N; F
8) C=C1C(=O)C2(C)OC2(C)C1C(=O)O (stereo not drawn); F

Per the assay record, what outcome was assigned to `CCOC(=O)c1cnc2c(ccc3ncccc32)c1NCCCN(CC)CC` ?
F

CCC(C)C(NC(=O)C(CC(C)C)NC(=O)CNC(=O)C(NC(=O)C1CCCN1C(=O)C(CC(C)C)NC(=O)C(N)Cc1ccccc1)C(C)CC)C(=O)NC(CC(C)C)C(N)=O (stereo not drawn) (H-FLPIGLIL-NH2; configuration not given here) , same question.
F

`Cc1cc2c(O)c(c1)CN(CC(=O)O)Cc1cc(C)cc(c1O)CN(CC(=O)O)Cc1cc(C)cc(c1O)CN(CC(=O)O)C2` , same question.
F

`FC(F)(Sc1ncccn1)c1nc2ccccc2o1` , same question.
F

`CC(=O)O[C@H]1[C@H](O[C@H]2CC[C@]34C[C@]35CC[C@]3(C)[C@@H]([C@@]6(C)CC[C@@H](C(C)(C)O)O6)[C@@H](O)C[C@@]3(C)[C@@H]5C[C@H](O[C@@H]3O[C@H](CO)[C@@H](O)[C@H](O)[C@H]3O)[C@H]4C2(C)C)OC[C@@H](O)[C@@H]1O` , same question.
F

O=C(N/N=C(\C1=Nc2ccc(Cl)cc2NC1O)C(O)/C=C/c1ccccc1)c1ccncc1 (stereo not drawn) , same question.
F

`Cc1cc(Cl)nc(NC(=O)CSc2ccc(Cl)cc2)n1` , same question.
F

CN1C(c2ccccc2)CC(=Nc2ccccc2)CC1c1ccccc1 (stereo not drawn) , same question.
F

CSc1nc(Cl)c2c(n1)Sc1nc3ccccc3n1C2O (stereo not drawn) , same question.
F

`CNc1nc2c(C)ccc3nc(N(C)C)nc-3c2n1C` , same question.
F

* * *

Tested on: NCI-H522
TEST_DETAILS: NCI tumour cell line growth inhibition, 48 h
Calls of active or inactive are those of the source. Rule as the data show it: active = GI50 up to about 1.1 µM and inactive = higher.
Can you answer with just one of these options? Y (active), N (inactive)

1. O=c1[nH][nH]c(=O)n1Cc1ccccc1Cn1c(=O)[nH][nH]c1=O; N
2. COc1ccc(C2NC3=C(CCCC3)C3(C#N)C(=O)N=C(N)C23C#N)cc1 (stereo not drawn); N
3. C=C1C(=O)C2(C)OC2(C)C1C(=O)O (stereo not drawn); N
4. Cc1cc(-c2nc3ccccc3s2)ccc1NC(=O)[C@H](C)N; N

Per the assay record, what outcome was assigned to O=C([O-])Cc1ccccc1.[Na+] [SODIUM PHENYLACETATE] ?
N

`CC(=O)NC1=C(Sc2ccc(Cl)cc2)C(=O)c2ccccc2C1=O` , same question.
Y

`N#Cc1nc2ccccc2nc1N1CCN(c2ccc([N+](=O)[O-])cc2)CC1` , same question.
N

* * *

Tested on: LXFL 529
TEST_DETAILS: NCI tumour cell line growth inhibition, 48 h
The source made the active and inactive calls. Cut-off read from the data, not from the text of the source: active = GI50 up to about 1.1 µM and inactive = higher.
REPORTED_PROPERTY: GI50

Which GI50 is reported for this compound? CCCC1C(=O)C(CC)Cc2c(OC)ccc(OC)c21 (stereo not drawn)
> 100 µM (inactive)

`COc1cc(C[S+]2CCCC2)c(SC)cc1C[S+]1CCCC1` , same question.
> 100 µM (inactive)

CN(C)CC1CCC/C1=N/OC(=O)c1ccccc1 (stereo not drawn) , same question.
> 100 µM (inactive)

`CC1=C(C(=O)Nc2ccccc2)C(c2ccccc2Cl)C(C(=O)Nc2ccccc2)=C(C)N1` , same question.
17.6 µM (inactive)

ON1CCc2c([nH]c3ccccc23)C1c1ccc(Cl)cc1 (stereo not drawn) , same question.
24 µM (inactive)

`CCOC(=O)C(=O)Nc1ccc(C)cc1C` , same question.
> 100 µM (inactive)

`COc1ccc(S(=O)(=O)N[C@H](C(=O)O)c2ccccc2)cc1` , same question.
> 100 µM (inactive)

`O=C1C(=O)N(c2ccc(Cl)c(Cl)c2)C(=O)C(=O)C1c1nc2ccccc2s1` , same question.
> 100 µM (inactive)

* * *

System: Hs-578T
TEST_DETAILS: NCI tumour cell line growth inhibition, 48 h
The source made the active and inactive calls. Rule as the data show it: active = GI50 up to about 1.1 µM and inactive = higher.
Can you answer with just one of these options? active, inactive

Some solved entries appear below for comparison.
1) O=C(O)COc1c(Cl)cc(Cl)c(C(c2c(Cl)cc(Cl)c(OCC(=O)O)c2Cl)C(Cl)(Cl)Cl)c1Cl; inactive
2) O=[N+]([O-])c1ccc(/C=C(/c2ccc([N+](=O)[O-])o2)S(=O)(=O)c2ccccc2)o1; inactive
3) Cc1cc2c(O)c(c1)CN(CC(=O)O)Cc1cc(C)cc(c1O)CN(CC(=O)O)Cc1cc(C)cc(c1O)CN(CC(=O)O)C2; inactive
4) C=C(C)C(=O)OC1CC2(C)OC2CC(OC(C)=O)/C(C)=C/C2OC(=O)C(=C)C21 (stereo not drawn); inactive
5) N#Cc1c(-c2ccccc2)cc(-c2ccc(Cl)cc2)[nH]c1=S; inactive

Per the assay record, what outcome was assigned to `[N-]=[N+]=Nc1c([N+](=O)[O-])c(Cl)nc2ccccc12` ?
inactive

`CC1(C)CC(=O)c2c(nc3c(ccc4ccccc43)c2-c2ccc(NC(=O)CCC(=O)Nc3ccc(-c4c5c(nc6c4ccc4ccccc46)CC(C)(C)CC5=O)cc3)cc2)C1` , same question.
inactive

`O=C(c1ccccc1)c1c2ccccn2c2cccc[n+]12` , same question.
inactive

C=CCC1(OC(C)=O)C2OC(=O)C1(O)OCC2O (stereo not drawn) , same question.
inactive

COc1ccc(C(OCC2OC(n3ccc(Oc4c(F)c(F)c(F)c(F)c4F)nc3=O)CC2OP(OCCC#N)N(C(C)C)C(C)C)(c2ccccc2)c2ccc(OC)cc2)cc1 (stereo not drawn) , same question.
inactive

`O=C(CSc1nc2ccc(I)cc2c(=O)n1Cc1ccccc1)N/N=C/c1ccccc1` , same question.
active

`CC(C)=CCC[C@@H](C)C1=C(Nc2ccccc2)C(=O)C(C)=C(O)C1=O` , same question.
inactive

`CCOC(=O)/C=C(\C(=O)OCC)n1ccc(=O)[nH]c1=O` , same question.
inactive
